This collection of values is drawn from paper PMC5564600.

Target: panel of 442 kinases (Homo sapiens)
Construct: purchased Ambit Biosciences (scanMAXX KINOMEscan)
Experiment: biochemical
Type: binding
Details: CSNK1E; 1 µM; read-out: % of control at 1 µM
MEASURED PARAMETER: remaining activity at 1 µM (%)
State just the number; it will be interpreted in %.

FC(F)c1nc2ccccc2n1-c1nc(N2CCOCC2)nc(N2CCOCC2)n1 = 100

// sample Nc1cc(C(F)(F)F)c(-c2cc(N3CCOCC3)nc(N3CCOCC3)n2)cn1 , its remaining activity at 1 µM was 100

// sample Cn1c(=O)n(-c2ccc(C(C)(C)C#N)cc2)c2c3cc(-c4cnc5ccccc5c4)ccc3ncc21 , its remaining activity at 1 µM was 54

// sample COc1ncc(-c2ccc3nccc(-c4ccnnc4)c3c2)cc1NS(=O)(=O)c1ccc(F)cc1F , its remaining activity at 1 µM was 100

====

A collection of compounds and their measured remaining activity at 1 µM
Biological target: panel of 442 kinases (Homo sapiens)
Construct: purchased Ambit Biosciences (scanMAXX KINOMEscan)
Assay: biochemical
Assay type: binding
Conditions: kinase IKK-beta; 1 µM; read-out: % of control at 1 µM
I'd appreciate it if you included the unit after the number.

Cn1c(=O)n(-c2ccc(C(C)(C)C#N)cc2)c2c3cc(-c4cnc5ccccc5c4)ccc3ncc21 [Dactolisib] = 73%

// sample Nc1cc(C(F)(F)F)c(-c2cc(N3CCOCC3)nc(N3CCOCC3)n2)cn1 [Buparlisib] , its remaining activity at 1 µM was 92%

// sample COc1ncc(-c2ccc3nccc(-c4ccnnc4)c3c2)cc1NS(=O)(=O)c1ccc(F)cc1F [Omipalisib] , its remaining activity at 1 µM was 100%

// sample FC(F)c1nc2ccccc2n1-c1nc(N2CCOCC2)nc(N2CCOCC2)n1 [ZSTK474] , its remaining activity at 1 µM was 88%

====

A collection of molecules and their measured remaining activity at 1 µM
Target: panel of 442 kinases (Homo sapiens, UniProt P21802)
Construct: purchased Ambit Biosciences (scanMAXX KINOMEscan)
Sequence (P21802 22-821): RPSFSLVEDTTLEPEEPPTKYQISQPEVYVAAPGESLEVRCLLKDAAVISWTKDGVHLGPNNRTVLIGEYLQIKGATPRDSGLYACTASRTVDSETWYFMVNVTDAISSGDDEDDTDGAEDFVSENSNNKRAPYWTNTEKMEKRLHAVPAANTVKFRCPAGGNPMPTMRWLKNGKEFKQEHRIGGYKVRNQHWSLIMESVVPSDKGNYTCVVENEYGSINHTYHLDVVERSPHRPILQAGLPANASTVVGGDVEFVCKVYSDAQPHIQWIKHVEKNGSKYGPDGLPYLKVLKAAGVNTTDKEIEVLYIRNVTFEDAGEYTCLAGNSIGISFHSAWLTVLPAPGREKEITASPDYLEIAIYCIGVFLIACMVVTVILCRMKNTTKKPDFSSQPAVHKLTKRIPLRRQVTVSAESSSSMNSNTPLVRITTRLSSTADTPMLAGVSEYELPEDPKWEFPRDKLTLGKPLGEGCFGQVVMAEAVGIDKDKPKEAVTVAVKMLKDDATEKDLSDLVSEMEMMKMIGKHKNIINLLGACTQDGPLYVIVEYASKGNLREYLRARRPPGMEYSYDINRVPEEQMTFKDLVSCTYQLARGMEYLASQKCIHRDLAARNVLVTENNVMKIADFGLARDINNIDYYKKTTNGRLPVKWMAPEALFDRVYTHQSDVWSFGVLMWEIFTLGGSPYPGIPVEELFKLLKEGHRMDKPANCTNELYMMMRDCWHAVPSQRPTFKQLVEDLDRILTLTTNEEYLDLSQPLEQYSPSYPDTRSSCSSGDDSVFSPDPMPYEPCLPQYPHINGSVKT
Assay: biochemical
Type: binding
Conditions: FGFR2; 1 µM; read-out: % of control at 1 µM

COc1ncc(-c2ccc3nccc(-c4ccnnc4)c3c2)cc1NS(=O)(=O)c1ccc(F)cc1F = 100%
Nc1cc(C(F)(F)F)c(-c2cc(N3CCOCC3)nc(N3CCOCC3)n2)cn1 = 98%
FC(F)c1nc2ccccc2n1-c1nc(N2CCOCC2)nc(N2CCOCC2)n1 = 100%

Now consider a different molecule.
Response field remaining activity at 1 µM (panel of 442 kinases (Homo sapiens, UniProt P21802)) for item Cn1c(=O)n(-c2ccc(C(C)(C)C#N)cc2)c2c3cc(-c4cnc5ccccc5c4)ccc3ncc21 : 100%

====

Target: panel of 442 kinases (Homo sapiens)
Construct: purchased Ambit Biosciences (scanMAXX KINOMEscan)
Sequence (P36888 27-993): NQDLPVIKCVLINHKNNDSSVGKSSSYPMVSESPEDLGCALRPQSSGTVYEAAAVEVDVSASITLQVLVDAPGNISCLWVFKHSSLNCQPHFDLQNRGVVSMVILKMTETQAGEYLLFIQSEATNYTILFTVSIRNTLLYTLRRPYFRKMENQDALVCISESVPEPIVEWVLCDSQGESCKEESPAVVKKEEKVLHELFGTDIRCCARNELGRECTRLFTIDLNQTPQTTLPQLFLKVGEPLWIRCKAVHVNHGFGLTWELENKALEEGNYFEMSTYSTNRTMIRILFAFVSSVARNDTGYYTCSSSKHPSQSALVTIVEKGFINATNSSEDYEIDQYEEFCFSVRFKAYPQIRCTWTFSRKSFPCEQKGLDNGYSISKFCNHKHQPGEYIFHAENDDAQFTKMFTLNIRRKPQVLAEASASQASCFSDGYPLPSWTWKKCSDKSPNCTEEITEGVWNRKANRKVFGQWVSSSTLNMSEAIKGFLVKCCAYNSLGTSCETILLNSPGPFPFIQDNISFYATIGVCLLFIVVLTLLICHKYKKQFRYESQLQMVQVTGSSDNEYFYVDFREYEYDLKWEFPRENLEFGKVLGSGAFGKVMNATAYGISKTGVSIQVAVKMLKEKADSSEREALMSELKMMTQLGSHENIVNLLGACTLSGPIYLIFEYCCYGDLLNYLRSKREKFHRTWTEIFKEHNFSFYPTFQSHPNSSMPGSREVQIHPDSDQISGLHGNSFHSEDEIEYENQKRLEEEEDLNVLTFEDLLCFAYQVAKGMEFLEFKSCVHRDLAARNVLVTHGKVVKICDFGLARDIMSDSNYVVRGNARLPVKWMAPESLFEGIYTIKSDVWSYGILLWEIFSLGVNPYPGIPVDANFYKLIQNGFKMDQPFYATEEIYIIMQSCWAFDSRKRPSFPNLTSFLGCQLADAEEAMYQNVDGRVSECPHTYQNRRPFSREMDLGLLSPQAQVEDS
Assay: biochemical
Assay type: binding
Conditions: FLT3; 1 µM; read-out: % of control at 1 µM
A collection of molecules and their measured remaining activity at 1 µM
State just the number; it will be interpreted in %.

In the examples that follow, each entry is paired with its recorded remaining activity at 1 µM.
COc1ncc(-c2ccc3nccc(-c4ccnnc4)c3c2)cc1NS(=O)(=O)c1ccc(F)cc1F [Omipalisib] = 100
Cn1c(=O)n(-c2ccc(C(C)(C)C#N)cc2)c2c3cc(-c4cnc5ccccc5c4)ccc3ncc21 [Dactolisib] = 67

// sample FC(F)c1nc2ccccc2n1-c1nc(N2CCOCC2)nc(N2CCOCC2)n1 [ZSTK474] , its remaining activity at 1 µM was 100

// sample Nc1cc(C(F)(F)F)c(-c2cc(N3CCOCC3)nc(N3CCOCC3)n2)cn1 [Buparlisib] , its remaining activity at 1 µM was 90

====

Biological target: G2019S mutant of LRRK2 (Homo sapiens, UniProt Q5S007, G2019S)
Construct: purchased Ambit Biosciences (scanMAXX KINOMEscan)
Sequence (Q5S007 whole entry G2019S): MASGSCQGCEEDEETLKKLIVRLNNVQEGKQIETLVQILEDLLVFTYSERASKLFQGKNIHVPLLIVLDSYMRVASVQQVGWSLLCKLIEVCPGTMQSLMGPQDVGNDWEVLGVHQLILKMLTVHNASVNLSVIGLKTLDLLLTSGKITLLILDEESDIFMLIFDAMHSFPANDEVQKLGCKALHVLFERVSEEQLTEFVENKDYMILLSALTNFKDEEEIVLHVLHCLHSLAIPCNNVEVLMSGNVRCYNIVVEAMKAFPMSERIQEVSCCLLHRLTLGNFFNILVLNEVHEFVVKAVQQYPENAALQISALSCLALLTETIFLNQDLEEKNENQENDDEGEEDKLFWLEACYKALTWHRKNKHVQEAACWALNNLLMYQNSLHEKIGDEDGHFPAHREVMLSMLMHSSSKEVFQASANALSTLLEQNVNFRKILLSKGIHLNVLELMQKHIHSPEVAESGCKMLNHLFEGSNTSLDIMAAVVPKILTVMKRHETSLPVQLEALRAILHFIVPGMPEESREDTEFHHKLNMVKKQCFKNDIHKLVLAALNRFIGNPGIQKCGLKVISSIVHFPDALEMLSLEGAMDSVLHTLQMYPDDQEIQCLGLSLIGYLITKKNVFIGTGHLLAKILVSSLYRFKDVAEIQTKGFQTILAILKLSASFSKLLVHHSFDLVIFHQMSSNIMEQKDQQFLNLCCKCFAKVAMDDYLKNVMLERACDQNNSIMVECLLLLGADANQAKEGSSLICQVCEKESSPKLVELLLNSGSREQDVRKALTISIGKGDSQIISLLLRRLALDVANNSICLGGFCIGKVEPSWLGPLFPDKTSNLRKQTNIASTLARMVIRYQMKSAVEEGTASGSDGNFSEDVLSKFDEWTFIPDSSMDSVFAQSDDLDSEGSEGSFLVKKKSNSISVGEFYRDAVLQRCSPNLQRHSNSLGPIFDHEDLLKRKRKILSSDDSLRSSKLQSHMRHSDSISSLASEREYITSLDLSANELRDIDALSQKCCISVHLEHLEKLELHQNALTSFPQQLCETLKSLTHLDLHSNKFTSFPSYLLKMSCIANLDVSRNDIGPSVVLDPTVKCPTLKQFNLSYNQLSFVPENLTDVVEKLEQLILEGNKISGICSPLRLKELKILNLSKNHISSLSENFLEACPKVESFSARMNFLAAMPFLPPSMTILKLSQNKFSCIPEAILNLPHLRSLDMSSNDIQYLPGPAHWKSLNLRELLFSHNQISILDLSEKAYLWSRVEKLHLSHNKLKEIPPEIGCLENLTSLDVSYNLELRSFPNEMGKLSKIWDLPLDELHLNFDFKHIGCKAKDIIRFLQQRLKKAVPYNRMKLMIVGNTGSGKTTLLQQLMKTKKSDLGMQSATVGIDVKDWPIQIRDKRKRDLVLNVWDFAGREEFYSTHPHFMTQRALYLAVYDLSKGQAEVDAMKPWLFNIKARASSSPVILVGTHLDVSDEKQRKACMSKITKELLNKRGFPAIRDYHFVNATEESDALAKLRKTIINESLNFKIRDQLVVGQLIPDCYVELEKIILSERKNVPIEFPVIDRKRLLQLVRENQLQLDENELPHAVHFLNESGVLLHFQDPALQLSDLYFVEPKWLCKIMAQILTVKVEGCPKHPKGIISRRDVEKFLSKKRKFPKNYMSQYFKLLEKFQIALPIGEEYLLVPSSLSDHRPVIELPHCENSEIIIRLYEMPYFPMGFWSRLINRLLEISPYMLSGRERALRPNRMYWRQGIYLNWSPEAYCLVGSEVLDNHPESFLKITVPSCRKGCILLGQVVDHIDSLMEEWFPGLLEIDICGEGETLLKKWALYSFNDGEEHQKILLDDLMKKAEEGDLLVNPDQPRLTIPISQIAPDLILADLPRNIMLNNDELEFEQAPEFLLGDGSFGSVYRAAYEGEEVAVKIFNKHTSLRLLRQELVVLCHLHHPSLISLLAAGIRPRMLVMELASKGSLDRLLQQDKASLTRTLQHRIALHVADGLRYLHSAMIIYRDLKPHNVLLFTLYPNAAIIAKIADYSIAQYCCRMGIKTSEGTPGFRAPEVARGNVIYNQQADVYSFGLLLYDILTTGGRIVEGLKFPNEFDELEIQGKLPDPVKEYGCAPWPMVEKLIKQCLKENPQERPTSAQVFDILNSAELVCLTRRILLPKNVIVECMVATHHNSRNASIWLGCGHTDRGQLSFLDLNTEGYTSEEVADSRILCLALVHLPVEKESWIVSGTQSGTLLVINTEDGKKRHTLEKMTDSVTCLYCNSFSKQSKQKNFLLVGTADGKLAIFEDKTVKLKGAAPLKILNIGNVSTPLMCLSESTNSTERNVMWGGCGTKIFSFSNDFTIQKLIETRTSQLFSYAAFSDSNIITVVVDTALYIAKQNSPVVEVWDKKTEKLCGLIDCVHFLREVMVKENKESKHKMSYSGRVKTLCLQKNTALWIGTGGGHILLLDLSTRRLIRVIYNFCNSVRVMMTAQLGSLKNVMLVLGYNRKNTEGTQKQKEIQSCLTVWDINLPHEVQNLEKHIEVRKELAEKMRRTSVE
Assay: KINOMEscan, LRRK2 G2019S
Format: binding
Conditions: kinase LRRK2(G2019S); 1 µM; read-out: % of control at 1 µM
MEASURED PARAMETER: remaining binding at 1 µM (%)
State just the number; it will be interpreted in %.

Nc1cc(C(F)(F)F)c(-c2cc(N3CCOCC3)nc(N3CCOCC3)n2)cn1 = 88
CS(=O)(=O)N1CCN(Cc2cc3nc(-c4cccc5[nH]ncc45)nc(N4CCOCC4)c3s2)CC1 = 82
Cn1c(=O)n(-c2ccc(C(C)(C)C#N)cc2)c2c3cc(-c4cnc5ccccc5c4)ccc3ncc21 = 53
COc1ncc(-c2ccc3nccc(-c4ccnnc4)c3c2)cc1NS(=O)(=O)c1ccc(F)cc1F = 87

Response field remaining binding at 1 µM (G2019S mutant of LRRK2 (Homo sapiens, UniProt Q5S007, G2019S)) for item FC(F)c1nc2ccccc2n1-c1nc(N2CCOCC2)nc(N2CCOCC2)n1 : 0.3

====

Molecular target: panel of 442 kinases (Homo sapiens, UniProt P19525)
Construct: purchased Ambit Biosciences (scanMAXX KINOMEscan)
Sequence (P19525 whole entry): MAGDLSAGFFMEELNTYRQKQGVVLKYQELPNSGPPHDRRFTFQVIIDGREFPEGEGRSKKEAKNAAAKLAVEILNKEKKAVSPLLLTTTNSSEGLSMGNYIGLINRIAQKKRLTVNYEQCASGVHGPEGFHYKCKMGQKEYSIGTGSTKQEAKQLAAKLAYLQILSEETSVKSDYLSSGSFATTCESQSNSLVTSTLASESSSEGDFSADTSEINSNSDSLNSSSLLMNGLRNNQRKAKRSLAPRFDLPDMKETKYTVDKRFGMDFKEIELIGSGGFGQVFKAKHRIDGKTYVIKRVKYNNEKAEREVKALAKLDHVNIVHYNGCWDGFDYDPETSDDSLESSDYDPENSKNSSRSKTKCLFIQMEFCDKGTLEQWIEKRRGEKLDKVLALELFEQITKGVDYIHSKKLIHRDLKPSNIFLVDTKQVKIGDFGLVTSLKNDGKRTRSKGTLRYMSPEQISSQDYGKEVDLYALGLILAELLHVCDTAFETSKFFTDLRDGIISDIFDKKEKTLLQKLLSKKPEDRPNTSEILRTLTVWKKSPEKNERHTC
Experiment: biochemical
Assay type: binding
Settings: kinase PRKR; 1 µM; read-out: PRKR (% of control at 1 µM)
A collection of compounds and their measured remaining activity at 1 µM
I'd appreciate it if you included the unit after the number.

In the examples that follow, each entry is paired with its recorded remaining activity at 1 µM.
Cn1c(=O)n(-c2ccc(C(C)(C)C#N)cc2)c2c3cc(-c4cnc5ccccc5c4)ccc3ncc21 [Dactolisib] = 95%
COc1ncc(-c2ccc3nccc(-c4ccnnc4)c3c2)cc1NS(=O)(=O)c1ccc(F)cc1F [Omipalisib] = 84%
FC(F)c1nc2ccccc2n1-c1nc(N2CCOCC2)nc(N2CCOCC2)n1 [ZSTK474] = 93%

Now consider a different compound.
// sample Nc1cc(C(F)(F)F)c(-c2cc(N3CCOCC3)nc(N3CCOCC3)n2)cn1 [Buparlisib] , its remaining activity at 1 µM was 88%

====

Target: PIK3C2G (Homo sapiens)
Construct: purchased Ambit Biosciences (scanMAXX KINOMEscan)
Sequence (O75747 1-1486): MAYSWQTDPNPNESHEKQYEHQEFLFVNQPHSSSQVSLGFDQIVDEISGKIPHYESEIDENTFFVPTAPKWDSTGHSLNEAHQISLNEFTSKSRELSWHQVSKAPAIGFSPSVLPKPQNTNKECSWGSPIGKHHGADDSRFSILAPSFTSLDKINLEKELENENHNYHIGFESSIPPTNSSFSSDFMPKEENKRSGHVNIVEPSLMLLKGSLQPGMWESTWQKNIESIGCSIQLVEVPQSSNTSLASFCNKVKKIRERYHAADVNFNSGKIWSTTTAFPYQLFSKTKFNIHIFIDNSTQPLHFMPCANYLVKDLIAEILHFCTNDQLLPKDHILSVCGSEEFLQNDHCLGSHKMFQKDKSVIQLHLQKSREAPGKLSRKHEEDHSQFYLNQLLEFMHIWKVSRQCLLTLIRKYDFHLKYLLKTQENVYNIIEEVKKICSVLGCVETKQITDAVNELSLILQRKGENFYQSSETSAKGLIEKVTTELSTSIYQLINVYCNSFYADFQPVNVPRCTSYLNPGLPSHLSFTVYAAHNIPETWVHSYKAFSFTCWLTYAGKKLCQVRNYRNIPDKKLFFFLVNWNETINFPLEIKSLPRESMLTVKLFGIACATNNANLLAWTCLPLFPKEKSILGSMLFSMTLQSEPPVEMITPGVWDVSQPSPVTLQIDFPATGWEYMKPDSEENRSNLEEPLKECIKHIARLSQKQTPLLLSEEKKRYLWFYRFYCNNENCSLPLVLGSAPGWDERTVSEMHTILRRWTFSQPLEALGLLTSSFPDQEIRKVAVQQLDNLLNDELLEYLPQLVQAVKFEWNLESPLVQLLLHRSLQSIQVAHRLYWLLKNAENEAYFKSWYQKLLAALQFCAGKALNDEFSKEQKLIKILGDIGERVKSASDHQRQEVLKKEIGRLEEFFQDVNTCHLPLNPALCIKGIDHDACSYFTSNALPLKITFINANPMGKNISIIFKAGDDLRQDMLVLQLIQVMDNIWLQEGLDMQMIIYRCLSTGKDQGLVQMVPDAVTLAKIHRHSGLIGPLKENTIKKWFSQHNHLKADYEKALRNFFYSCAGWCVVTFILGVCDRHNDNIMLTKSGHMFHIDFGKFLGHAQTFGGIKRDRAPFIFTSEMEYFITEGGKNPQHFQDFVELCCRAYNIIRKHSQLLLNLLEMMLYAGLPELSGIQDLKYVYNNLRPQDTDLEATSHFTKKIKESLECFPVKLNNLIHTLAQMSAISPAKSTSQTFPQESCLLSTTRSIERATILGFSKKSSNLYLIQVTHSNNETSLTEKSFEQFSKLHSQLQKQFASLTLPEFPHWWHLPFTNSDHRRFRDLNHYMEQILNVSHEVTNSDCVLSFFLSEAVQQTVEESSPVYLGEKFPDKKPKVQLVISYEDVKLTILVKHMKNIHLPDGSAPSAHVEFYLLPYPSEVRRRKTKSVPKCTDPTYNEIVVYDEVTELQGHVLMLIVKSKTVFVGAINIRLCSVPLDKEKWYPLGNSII
Assay: KINOMEscan, PIK3C2G
Type: binding
Settings: kinase PIK3C2G; 1 µM; read-out: % of control at 1 µM
A collection of molecules and their measured remaining binding at 1 µM

In the examples that follow, each entry is paired with its recorded remaining binding at 1 µM.
Nc1cc(C(F)(F)F)c(-c2cc(N3CCOCC3)nc(N3CCOCC3)n2)cn1 = 97%
COc1ncc(-c2ccc3nccc(-c4ccnnc4)c3c2)cc1NS(=O)(=O)c1ccc(F)cc1F = 0%
CS(=O)(=O)N1CCN(Cc2cc3nc(-c4cccc5[nH]ncc45)nc(N4CCOCC4)c3s2)CC1 = 32%
Cn1c(=O)n(-c2ccc(C(C)(C)C#N)cc2)c2c3cc(-c4cnc5ccccc5c4)ccc3ncc21 = 0%

// sample FC(F)c1nc2ccccc2n1-c1nc(N2CCOCC2)nc(N2CCOCC2)n1 , its remaining binding at 1 µM was 0%
